Origin of values: patent US7553617B1

The binders listed here are annotated with their Affinity Relative to YGGFL.
Molecular target: Monoclonal antibody 3E7
Test: solution RIA, displacement of [125I]b-endorphin from mAb 3E7
The reply should be a number, written without any unit.

Here's what some known entries look like.
YGNWTY 0.00091
YGGWAG 0.00091
YAGFAQ 0.00086
YGGF 0.037
YGGFL 1

**Query** Value lookup for Affinity Relative to YGGFL; key = YGPFWS
**Result** 0.0037

**Query** Value lookup for Affinity Relative to YGGFL; key = YGGFPD
**Result** 0.0031

**Query** Value lookup for Affinity Relative to YGGFL; key = YGFWGM
**Result** 0.02
